experimental.system: human CB2R (Homo sapiens)
procedure.text: CB2R mediated modulation of cAMP synthesis
Format: cell-based
Listed compounds paired with reported log10 of EC50
observed.property: log10 of EC50 (log10 of the value in nM)

compound=CC(C)(C)c1cc(NC(=O)[C@@H]2CC(F)(F)CN2C(=O)C2CCC(F)(F)CC2)no1 recorded_result=2.35
compound=C=Cc1ccc(N2C(=O)CC[C@H]2C(=O)Nc2cc(C(C)(C)C)no2)cc1 recorded_result=1.31
compound=CC(C)(C)c1nc(NC(=O)[C@@H]2CCCN2c2ccc(Cl)cc2)sc1C#N recorded_result=1.50
compound=O=C(Nc1nc(-c2ccccc2)ns1)[C@@H]1C[C@@H](O)CN1c1ccc(C(F)(F)F)cn1 recorded_result=2.55
compound=O=C(NCCC1CCOCC1)[C@@H]1CCCN1c1ccc(Cl)cc1 recorded_result=2.02
compound=CC(C)(C)c1cc(NC(=O)[C@@H]2CCCN2CC2CC2)on1 recorded_result=1.06
compound=CC(C)(C)c1cc(NC(=O)[C@@H]2C[C@@H](O)CN2C2CCCCC2)no1 recorded_result=0.67
compound="CC(C)(C)c1cc(NC(=O)[C@@H]2CCCN2CC2CCOC2)on1 (stereo partly shown)" recorded_result=-0.94
compound=CC(C)(C)c1cc(NC(=O)[C@@H]2CCC(=O)N2c2ccc(OC(F)(F)F)cc2)no1 recorded_result=2.12
compound="CC1CC(NC(=O)[C@@H]2CCC(=O)N2c2ccc(Cl)cc2)CC(C)(C)C1 (stereo partly shown)" recorded_result=2.33

* * *

experimental.system: UniProt P34972
procedure.text: CB2R mediated modulation of cAMP synthesis
Assay type: cell-based
pEC50: −log10 of the molar value.
Listing: pEC50 of selected molecules
observed.property: pEC50

chemical_string=CC(C)(C)c1nc(NC(=O)[C@@H]2C[C@H](O)CN2CC2CCOCC2)sc1C#N recorded_result=6.42
chemical_string=CC(C)(C)c1cc(NC(=O)[C@@H]2C[C@@H](O)CN2c2ccc(C(F)(F)F)cn2)on1 recorded_result=9.36
chemical_string=CC(C)(C)c1cc(NC(=O)[C@@H]2C[C@H](O)CN2c2ccc(C(F)(F)F)cn2)no1 recorded_result=7.55
chemical_string=CC(C)(C)c1cc(NC(=O)[C@]2(C)CCCN2c2ccc(Cl)cc2)no1 recorded_result=9.68
chemical_string=O=C(Nc1nc2cc(Cl)c(Cl)cc2[nH]1)[C@@H]1CCCN1C1CCOCC1 recorded_result=6.78
chemical_string=CC(C)(C)c1nnc(NC(=O)[C@@H]2CCCN2C2CCCC2)s1 recorded_result=6.78
chemical_string=CC(C)(C)c1cc(NC(=O)[C@@H]2CCC(=O)N2c2ncc(C(F)(F)F)cc2Cl)no1 recorded_result=8.19
chemical_string=CC(C)(C)c1cc(NC(=O)[C@@H]2CCC(=O)N2c2ccccn2)on1 recorded_result=6.87
chemical_string=CC(C)(CO)c1cc(NC(=O)[C@@H]2C[C@@H](O)CN2c2ccc(Cl)cc2)on1 recorded_result=6.71
chemical_string=CC(C)(C)c1cc(NC(=O)[C@@H]2CCCN2C2CC2)on1 recorded_result=8.50

* * *

Each entry below carries its recorded log10 EC50.
experimental.system: human CB2R (Homo sapiens, UniProt P34972)
Sequence (P34972 whole entry): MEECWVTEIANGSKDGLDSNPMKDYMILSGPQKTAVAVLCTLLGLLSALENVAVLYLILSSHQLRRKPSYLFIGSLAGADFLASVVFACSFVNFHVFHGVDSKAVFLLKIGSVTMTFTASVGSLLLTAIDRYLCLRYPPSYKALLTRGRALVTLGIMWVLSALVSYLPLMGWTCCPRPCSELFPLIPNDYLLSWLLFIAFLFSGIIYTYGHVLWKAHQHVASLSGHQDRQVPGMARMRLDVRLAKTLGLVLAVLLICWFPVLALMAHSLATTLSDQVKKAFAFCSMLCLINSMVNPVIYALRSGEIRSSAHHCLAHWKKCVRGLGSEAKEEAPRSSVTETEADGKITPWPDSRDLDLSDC
procedure.text: CB2R mediated modulation of cAMP synthesis
Format: cell-based
Experimental: B. CB2R Mediated Modulation of cAMP Synthesis: Compounds of the invention were evaluated for their CB2 agonist or inverse agonistic activity in accordance with the following experimental method. CHO cells expressing human CB2R (Euroscreen) were plated at a density of 5000 cells per well in 384 well plates and incubated overnight at 37° C. […] Cells were lysed and the cAMP concentration was measured using DiscoverX-XS cAMP kit, following the manufacturer's protocol. […]
observed.property: log10 EC50 (log10 of the value in nM)

compound=Cc1nc(N2C(=O)CC[C@H]2C(=O)Nc2cc(C(C)(C)C)no2)ccc1F recorded_result=1.87
compound="CC1(C)CC(CN2CCCC2C(=O)Nc2cc(C(C)(C)C)no2)CCO1 (stereo not shown)" recorded_result=0.85
compound=O=C(Nc1ccc(C(F)(F)F)cn1)[C@@H]1CCCN1c1ccc(C(F)(F)F)cc1 recorded_result=1.19
compound=CCCN1CCC[C@H]1C(=O)Nc1nc(C(C)(C)C)cs1 recorded_result=2.20
compound=O=C(Nc1nc(-c2ccc(Cl)cc2)cs1)[C@@H]1C[C@@H](O)CN1CC1CCOCC1 recorded_result=1.85
compound=CC(C)(C)c1cc(NC(=O)[C@@H]2CCC(=O)N2c2ccc(Cl)c(Cl)c2)no1 recorded_result=1.70
compound=CC(C)N1CCC[C@H]1C(=O)Nc1cc(C(C)(C)C)no1 recorded_result=2.21
compound=O=C(Nc1nc(-c2ccc(F)cc2)cs1)[C@@H]1CCCN1c1ccc(Cl)cc1 recorded_result=2.06
compound="CC(C)(C)C1CCC(NC(=O)[C@@H]2CCCN2c2ccc(Cl)cc2)CC1 (stereo partly shown)" recorded_result=0.87
compound=CC(C)(C)c1cc(NC(=O)[C@@H]2CCCN2Cc2ccc(F)cc2)on1 recorded_result=-0.13

* * *

experimental.system: human CB2R (Homo sapiens, UniProt P34972)
procedure.text: CB2R mediated modulation of cAMP synthesis
Type: cell-based
EC50 overview
observed.property: EC50 (nM)

compound=CC(C)(C)c1cc(NC(=O)[C@@H]2CCCN2S(=O)(=O)c2ccc(S(C)(=O)=O)cc2)no1 observed_property=EC50 recorded_result=183
compound=CC(C)(C)c1csc(NC(=O)[C@@H]2CCCN2C2CCOCC2)n1 observed_property=EC50 recorded_result=279
compound=Cc1cc(N2C(=O)CC[C@H]2C(=O)Nc2cc(C(C)(C)C)no2)ccc1F observed_property=EC50 recorded_result=91.2
compound=CC(C)(C)c1nnc(NC(=O)[C@@H]2CCCN2CCCO)s1 observed_property=EC50 recorded_result=320
compound=O=C(Nc1nc2cc(Cl)ccc2[nH]1)[C@@H]1CCCN1CC1CCOCC1 observed_property=EC50 recorded_result=48.6
compound=CC(C)(C)c1cc(NC(=O)[C@@H]2C[C@@H](O)CN2c2ccc(C(F)(F)F)cn2)no1 observed_property=EC50 recorded_result=161
compound=CC(C)(C)c1nnc(NC(=O)[C@@H]2CCCN2C2CCCCC2)s1 observed_property=EC50 recorded_result=30
compound=O=C(Nc1ccc(C(F)(F)F)cn1)[C@@H]1CCCN1CC1CCOCC1 observed_property=EC50 recorded_result=212
compound=CC(C)(C)c1cc(NC(=O)[C@@H]2CCCN2C(=O)N2CCS(=O)(=O)CC2)on1 observed_property=EC50 recorded_result=97.1
compound=CC(C)(C)c1cc(NC(=O)[C@@H]2C[C@@H](O)CN2CC2CCOCC2)no1 observed_property=EC50 recorded_result=3.89
compound=O=C(NC1CCOCC1)[C@@H]1CCCN1c1ccc(Cl)cc1 observed_property=EC50 recorded_result=254
compound="CC(C)(C)c1nnc(NC(=O)[C@@H]2CCCN2C2CCCC2(C)C)s1 (some centres unmarked)" observed_property=EC50 recorded_result=445
compound=O=C(Nc1nc(-c2ccc(Cl)cc2)cs1)[C@@H]1CCCN1c1ccc(Cl)cc1 observed_property=EC50 recorded_result=84.9
compound=CC(C)(C)c1cc(NC(=O)[C@@H]2CCCN2c2ncc(C(F)(F)F)cc2Cl)on1 observed_property=EC50 recorded_result=0.055
compound=CC(C)(C)c1cc(NC(=O)[C@@H]2CCCN2C2CCCCC2)on1 observed_property=EC50 recorded_result=0.173
compound=CCCc1cc(NC(=O)[C@@H]2CCCN2c2ccc(Cl)cc2)on1 observed_property=EC50 recorded_result=2.41
compound=CC(C)(C)SCCNC(=O)[C@@H]1CCCN1c1ccc(Cl)cc1 observed_property=EC50 recorded_result=2.61
compound=O=C(Nc1ccc(C(F)(F)F)cn1)[C@@H]1CCCN1c1ccc(Cl)cc1 observed_property=EC50 recorded_result=35.1
compound=COCC(C)(C)c1cc(NC(=O)[C@@H]2CCC(=O)N2c2ccc(Cl)cc2)on1 observed_property=EC50 recorded_result=48.7
compound=CC(C)c1ccc(N2C(=O)CC[C@H]2C(=O)Nc2cc(C(C)(C)C)no2)cc1 observed_property=EC50 recorded_result=159
compound=Cc1ccc(N2C(=O)CC[C@H]2C(=O)Nc2cc(C(C)(C)C)no2)cc1Cl observed_property=EC50 recorded_result=77.4
compound=CC(C)(C)c1cc(NC(=O)[C@@H]2CCC(=O)N2c2ccc(F)c(F)c2)no1 observed_property=EC50 recorded_result=64.2
compound=Cc1cc(N2C(=O)CC[C@H]2C(=O)Nc2cc(C(C)(C)C)on2)ccc1F observed_property=EC50 recorded_result=362
compound=CC(C)(C)c1cc(NC(=O)[C@@H]2CCC(=O)N2c2ccc(Cl)cc2)sn1 observed_property=EC50 recorded_result=135
compound=C[C@@]1(C(=O)Nc2nc(-c3ccccc3)ns2)CCCN1c1ccc(C(F)(F)F)cn1 observed_property=EC50 recorded_result=0.136
compound="CC1CC(NC(=O)[C@@H]2CCCN2c2ccc(Cl)cc2)CC(C)(C)C1 (some centres unmarked)" observed_property=EC50 recorded_result=2.16
compound=CC(C)(C)c1nnc(NC(=O)[C@@H]2CCCN2c2ccc(Cl)cc2)s1 observed_property=EC50 recorded_result=0.098
compound=O=C(Nc1nc(C(F)(F)F)cs1)[C@@H]1CCCN1c1ccc(Cl)cc1 observed_property=EC50 recorded_result=89.2
compound=O=C(Nc1nc2cc(Cl)ccc2[nH]1)[C@@H]1CCCN1c1ccc(Cl)cc1 observed_property=EC50 recorded_result=2.16
compound=COCC(C)(C)c1cc(NC(=O)[C@@H]2CCC(=O)N2c2ccc(Cl)cc2)no1 observed_property=EC50 recorded_result=86.1
compound="Cn1nc(C(C)(C)C)cc1NC(=O)C1CCCN1c1ncc(C(F)(F)F)cc1Cl (centres unmarked)" observed_property=EC50 recorded_result=112
compound=CC(C)(C)c1cc(NC(=O)[C@@H]2CCC(=O)N2c2ccc(C(F)(F)F)cc2)no1 observed_property=EC50 recorded_result=5.76
compound=O=C(Nc1nc(C2CCCCC2)cs1)[C@@H]1CCCN1c1ccc(Cl)cc1 observed_property=EC50 recorded_result=35.5
compound=CC(C)(C)c1cc(NC(=O)[C@@H]2C[C@@H](O)CN2C2CCCC2)no1 observed_property=EC50 recorded_result=23.2
compound=CC(C)(C)c1cc(NC(=O)[C@@H]2CCC(=O)N2c2ccc(Cl)cn2)on1 observed_property=EC50 recorded_result=3.44
compound=Cc1cc(N2C(=O)CC[C@H]2C(=O)Nc2cc(C(C)(C)C)no2)ccc1Cl observed_property=EC50 recorded_result=23.7
compound=CC(C)(C)c1nnc(NC(=O)[C@@H]2CCCN2C2CCC2)s1 observed_property=EC50 recorded_result=255
compound=O=C(Nc1cccc(C(F)(F)F)n1)[C@@H]1CCCN1c1ccc(Cl)cc1 observed_property=EC50 recorded_result=48.8
compound=CC(C)(C)c1cc(NC(=O)[C@@H]2CCC(=O)N2c2ccc(C(F)F)cc2)on1 observed_property=EC50 recorded_result=15.2
compound=CC(C)(C)c1cc(NC(=O)[C@@H]2C[C@@H](O)CN2Cc2ccc(F)c(F)c2)on1 observed_property=EC50 recorded_result=6.88
compound="O=C(Nc1ccc(C(F)(F)F)cn1)C1CCCN1c1ccc(C(F)(F)F)cn1 (centres unmarked)" observed_property=EC50 recorded_result=328
